The reported measurements were obtained from the supplement of paper PMC6555819.

Test system: RARa:RXR (NR concentration 270 nM, RXRa partner concentration 90 nM)
test-summary: PBM binding z-score (relative to random genomic background probes); higher = stronger binding; sequences stand for … in GC…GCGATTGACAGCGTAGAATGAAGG
endpoint-label: PBM binding z-score
Could you respond with only the numeric value?

Some sequences with recorded PBM binding z-score:
biopolymer-sequence: CCTTACGGGTCACTCCACGTTATAGCATCGGAGT
endpoint-label: PBM binding z-score
value-observed: 3.01
//
biopolymer-sequence: ACTAGCAGGCCAAGTTTGGGTCAGTCAAACAAAG
endpoint-label: PBM binding z-score
value-observed: 0.649
//
biopolymer-sequence: CCTATCAGTTGACCATAAGGGCAACCGAAGCTCG
endpoint-label: PBM binding z-score
value-observed: 1.14
//
biopolymer-sequence: CCTATTAGTTGACCATAAGGGCAACCGAAGCTCG
endpoint-label: PBM binding z-score
value-observed: 1.37
//
biopolymer-sequence: TTACCAAGGTGAGCTGCGGTCGTTGATCCAACTC
endpoint-label: PBM binding z-score
value-observed: 0.61
//
biopolymer-sequence: AGTCAAAGTTCACTAGGTAGCGTAAGATTCAGCT
endpoint-label: PBM binding z-score
value-observed: 3.01

Recorded PBM binding z-score (sequence ATCTCTAGGTAAGCCTCAGTTCAGTGAAGAACGC ): 0.356

Recorded PBM binding z-score (sequence GGTACAGGGTCAGCTAGAGGCCAGAGTATGGAAA ): 4.88

Recorded PBM binding z-score (sequence GCACACAGGTGAAACGCAGGTAACTCAGGGTGGC ): 0.575

Recorded PBM binding z-score (sequence ACACACAGGTGATGAAGGTAACTCAGGCTATCAT ): 0.28

Recorded PBM binding z-score (sequence TCTCGGAGGACAGGAAGGTCAGAGCTTTCCAGAG ): 1.42

Recorded PBM binding z-score (sequence TCTAGCAGACCAGAGGGTCACTCAAGAGGTACGG ): 1.85

Recorded PBM binding z-score (sequence CCTGCTAGGTCAATGGTCAGCAAAAGCAGCTCGC ): 1.49

Recorded PBM binding z-score (sequence CGAACGAGGGCGTGAGTTGATAGCAAATGCCGAT ): -0.268

Recorded PBM binding z-score (sequence CGAACTAGGTCATTGACAGGACAGAGAATAGTAA ): 2.19

Recorded PBM binding z-score (sequence ATCTCTAGGTAACCAAGTTCAGTGGATGCCGAAC ): 0.454

Recorded PBM binding z-score (sequence CCTTACGGGTCACTCCAGCTTATAGCATCGGAGT ): 3.54

Recorded PBM binding z-score (sequence CAAACTAGGTCACTGGAAGGTCAAAGTCCGCATG ): 7.1

Recorded PBM binding z-score (sequence TAGTCTAGGTCATGCGGGCCAGTATAGTGTCGGC ): 2.07

Recorded PBM binding z-score (sequence CCAGACAGGTGACAAGGTAACTCAGCCTCGATTA ): 0.278
